Value source: ChEMBL document CHEMBL1137876

tested on: CHO; experiment: Concentration required to inhibit tumor growth in CHO cells; format: functional, cell-based; conditions: Cricetulus griseus
pIC50: −log10 of the molar value.
Task for the reader: assign each of the following compounds its reported pIC50.

IN: Record request: pIC50 value, item CCCCCCCC/C=C/CCCCCCCCNC(=O)[C@@H](N)CO
OUT: 5.28

IN: Record request: pIC50 value, item CCCCCCCCNC(=O)[C@H](CO)NC(=O)CCCCCCC
OUT: < 4.00

IN: Record request: pIC50 value, item CCCCCCCC/C=C/CCCCCCCCC(=O)NCCO
OUT: < 4.70

IN: Record request: pIC50 value, item CCCCCCCC/C=C/CCCCCCCCC(=O)NCCOP(=O)(O)O
OUT: < 4.30
